System: Cytochrome P450 3A4 (Homo sapiens) (UniProt P08684)
Sequence (P08684 whole entry, looked up): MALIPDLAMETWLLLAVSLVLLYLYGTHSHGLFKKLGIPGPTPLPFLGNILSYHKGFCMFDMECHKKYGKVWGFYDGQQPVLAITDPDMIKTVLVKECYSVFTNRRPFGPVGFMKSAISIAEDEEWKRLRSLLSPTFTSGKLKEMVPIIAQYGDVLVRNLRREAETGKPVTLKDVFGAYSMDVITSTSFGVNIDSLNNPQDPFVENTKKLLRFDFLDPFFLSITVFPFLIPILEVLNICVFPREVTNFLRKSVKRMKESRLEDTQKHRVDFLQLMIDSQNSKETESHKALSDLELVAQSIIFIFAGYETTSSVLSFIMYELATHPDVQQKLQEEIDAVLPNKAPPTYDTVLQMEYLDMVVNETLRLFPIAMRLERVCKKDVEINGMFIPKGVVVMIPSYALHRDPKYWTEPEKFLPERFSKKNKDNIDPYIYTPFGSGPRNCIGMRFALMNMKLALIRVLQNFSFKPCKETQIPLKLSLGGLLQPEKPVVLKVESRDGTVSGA
Assay protocol: qHTS Assay for Activators of Cytochrome P450 3A4 (AID 885); further: nearly all actives have a fitted effect of over 65% in size
Stated conditions: recombinant CYP3A4, Luciferin-PPXE luminescence, 60 min; series mostly up to 57.1 µM
Description: NIH Molecular Libraries Screening Centers Network [MLSCN] NIH Chemical Genomics Center [NCGC] The P450 gene superfamily is involved in the metabolism and clearance of xenobiotics. […] The luciferin is then measured by luminescence after the addition of a luciferase detection reagent. […] Inhibitors and some substrates limit the production of luciferin, and decrease measured luminescence; activators increase the production of luciferin and luminescence. […]
Active and inactive are the calls of the source. The call rests on the fitted dose curve; in most records, active means well fitted activation curve with a large enough effect; inconclusive means small, poorly fitted or top-dose-only effect; inactive means no such curve, though single readings can be large or run the other way.
Attribute measured: activity change, positive = activation

These recorded examples may help you get a feel for the data.
Compound: Nc1ccccc1C(=O)/C=C\c1ccc2c(c1)OCO2
activity change, positive = activation: -84.3% [at 11.4 µM] (inactive)
//
Compound: CCCNC(=O)OC[C@@H]1O[C@H](CCO/N=C\C[C@H]2C=C[C@H](OC(C)=O)[C@@H](COC(C)=O)O2)C=C[C@@H]1Oc1ccc(OC)cc1
activity change, positive = activation: -95.4% [at 11.4 µM] (inactive)
//
Compound: CCCNC(=O)OC[C@@H]1O[C@H](CCON=C(C)C)C=C[C@@H]1Oc1ccc(OC)cc1
activity change, positive = activation: -58.2% [at 11.4 µM] (inactive)
//
Compound: CCC1=C2CC[C@H]3C(=O)N(c4ccccc4)C(=O)[C@H]3[C@H]2[C@@]2(Cc3ccccc3)C(=NCc3ccccc3)OC(=O)N2C1=O
activity change, positive = activation: inactive

Cytochrome P450 3A4 (Homo sapiens) (UniProt P08684) assay, compound C#CCCCCCCCCCCCC(O)CC(O)COC(C)=O (configuration not stated) , recorded activity change, positive = activation = inactive

Cytochrome P450 3A4 (Homo sapiens) (UniProt P08684) assay, compound "Cn1c(=O)c(C(=O)COC(=O)c2cc(C(F)(F)F)nc3c(C(F)(F)F)cccc23)c(N)n(CC2CC2)c1=O" , recorded activity change, positive = activation = inactive

---

System: Estrogen receptor (Homo sapiens)
Assay protocol: qHTS assay for small molecule antagonists of estrogen receptor alpha signaling (AID 588513)
Stated conditions: ER-alpha-UAS-bla HEK293, beta-lactamase ratio, antagonist mode; series mostly up to 76.9 µM
Records with an inconclusive call do not appear. Active and inactive are the calls of the source. The call rests on the fitted dose curve; in most records, active means well fitted curve in the direction sought with a large enough effect in the signal ratio, with a control signal flat (not every such curve was filed as active); inconclusive means small, poorly fitted or top-dose-only effect, or effect the other way, or a change in a side signal; inactive means no such curve, though single readings can be large or run the other way; the % refers to the signal ratio.
# output must be one of 1 (active), -1 (inactive)

Compound: Cc1ccc(C(=O)c2ccccc2)cc1
Label class: -1

Compound: CC(C)c1ccc2cc(C(C)C)ccc2c1
Label class: -1

Compound: CCCC/C=C/CCCCO
Label class: -1

Exercise: Which result was noted for this compound in the test: "CC1(C)C(=O)N(Cl)C(=O)N1Cl"
Solution: -1

Exercise: Which result was noted for this compound in the test: "CO/N=C1\C[C@]2(C[C@@H]3C[C@@H](C/C=C(\C)C[C@@H](C)/C=C/C=C4\CO[C@@H]5[C@H](O)C(C)=C[C@@H](C(=O)O3)[C@]45O)O2)O[C@H](/C(C)=C/C(C)C)[C@H]1C"
Solution: 1

Exercise: Which result was noted for this compound in the test: "CNc1nc(=O)n(C2CCCCC2)c(=O)n1C"
Solution: -1

---

System: Cytochrome P450 3A4 (Homo sapiens) (UniProt P08684)
Assay protocol: qHTS Assay for Activators of Cytochrome P450 3A4 (AID 885); further: nearly all actives have a fitted effect of over 65% in size
Stated conditions: recombinant CYP3A4, Luciferin-PPXE luminescence, 60 min; series mostly up to 57.1 µM
Active and inactive are the calls of the source. The call rests on the fitted dose curve; in most records, active means well fitted activation curve with a large enough effect; inconclusive means small, poorly fitted or top-dose-only effect; inactive means no such curve, though single readings can be large or run the other way.
Attribute measured: activity change, positive = activation

These recorded examples may help you get a feel for the data.
Molecule: CO[C@H]1COC(=O)C/C=C\[C@@H](C)COC(=O)[C@@H](OCc2ccccc2)/C=C\[C@@H]1C
activity change, positive = activation: -63.8% [at 11.4 µM] (inactive)
--
Molecule: CC(=O)OC[C@@H]1O[C@H](CCO/N=C(\C)CCN2CCc3nc(-c4ccccc4)c(-c4ccccc4)cc3C2)C=C[C@@H]1OC(C)=O
activity change, positive = activation: -47.2% [at 11.4 µM] (inactive)
--
Molecule: COC(=O)c1ccc(C(NC(=O)OCc2ccccc2)/C(=C/[C@@H](C)C(=O)NCc2ccc(-c3ccccc3)cc2)c2cccnc2)cc1 (some centres not stated)
activity change, positive = activation: inactive
--
Molecule: COC(=O)c1ccc(C(NC(=O)OCc2ccccc2)/C(I)=C/[C@@H](C)C(=O)NCc2ccc(OC)c(O)c2)cc1 (some centres not stated)
activity change, positive = activation: inactive
--
Molecule: CCC1=C2CC[C@H]3C(=O)NC(=O)[C@H]3[C@H]2[C@@]2(Cc3ccccc3)C(=NCc3ccccc3)OC(=O)N2C1=O
activity change, positive = activation: inactive

Looking up CCN1C(C)=C(C(=O)OC)C(c2ccccc2)N2C(=O)[C@](O)(C(=O)OC)C(c3ccccc3)C(C(C)=O)=C12 (some centres not stated) , I see its activity change, positive = activation listed as -59.7% [at 11.4 µM] (inactive)

Looking up "CO[C@H]1COC(=O)[C@H](C)COC(=O)[C@@H](Cc2ccccc2)NC(=O)C/C=C\[C@H]1C" , I see its activity change, positive = activation listed as -39.6% [at 11.4 µM] (inactive)

---

System: Cytochrome P450 2D6 (Homo sapiens) (UniProt P10635)
Sequence (P10635 whole entry, looked up): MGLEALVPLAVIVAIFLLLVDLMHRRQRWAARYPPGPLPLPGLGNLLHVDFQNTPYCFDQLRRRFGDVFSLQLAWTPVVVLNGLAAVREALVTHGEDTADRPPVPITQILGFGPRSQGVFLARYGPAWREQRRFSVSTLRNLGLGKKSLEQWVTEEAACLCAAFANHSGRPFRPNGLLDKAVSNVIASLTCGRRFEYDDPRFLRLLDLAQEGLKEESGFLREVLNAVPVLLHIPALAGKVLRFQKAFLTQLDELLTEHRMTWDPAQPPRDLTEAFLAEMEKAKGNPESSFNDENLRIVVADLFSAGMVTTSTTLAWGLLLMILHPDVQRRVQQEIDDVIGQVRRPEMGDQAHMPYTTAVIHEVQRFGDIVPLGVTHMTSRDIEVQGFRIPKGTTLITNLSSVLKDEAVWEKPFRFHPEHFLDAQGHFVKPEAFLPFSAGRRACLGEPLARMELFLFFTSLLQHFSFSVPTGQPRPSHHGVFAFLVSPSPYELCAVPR
Assay protocol: qHTS Assay for Inhibitors and Substrates of Cytochrome P450 2D6 (AID 891); further: nearly all actives have a fitted effect of over 60% in size
Stated conditions: recombinant CYP2D6, luciferin-ME EGE luminescence; series mostly up to 11.4 µM
Results filed as inconclusive are left out. The source made the active and inactive calls. Calls follow the shape of the dose curve; as a rule, active = well fitted inhibition curve with a large enough effect; inconclusive = small, poorly fitted or top-dose-only effect; inactive = no such curve, though single readings can be large or run the other way.
# output must be one of active, inactive

Sample answers from the record:
Compound: CC(C)[C@H](NC(=O)OC(C)(C)C)[C@@H](O)CC(=O)OC(C)(C)C
Label class: active
//
Compound: CO/N=C(\C)CCN1CCCc2nc(C)c(C)cc21
Label class: active
//
Compound: CC(C)=CCC/C(C)=C/CO/N=C1/C[C@@H](O)[C@@H](O)[C@@H]2[C@@H]3C(=O)N(C(C)(C)C)C(=O)[C@H]3CC[C@H]12
Label class: inactive

Exercise: Which result was noted for this compound in the test: COC(=O)NC(/C(C(=O)OC)=C(\C)NCc1ccccc1)c1ccc2ccccc2c1 (centres undefined)
Solution: active

Exercise: Which result was noted for this compound in the test: CCC[C@@H]1C[C@@]1(CCC)C(NC(=O)OCc1ccccc1)c1ccc(-c2ccccc2)cc1 (some centres undefined)
Solution: active

Exercise: Which result was noted for this compound in the test: "CC(C)=NOC[C@@H](O)COCc1ccco1"
Solution: inactive

Exercise: Which result was noted for this compound in the test: CCC(=O)[C@]12O[C@@]3(C4C(=O)OCCC41)N(CC)C(C)=C(C(=O)OC)C(c1ccccc1)N3C2=O (some centres undefined)
Solution: inactive

Exercise: Which result was noted for this compound in the test: COC(=O)NC(CC(C)=O)c1ccco1 (centres undefined)
Solution: inactive

Exercise: Which result was noted for this compound in the test: COc1cc(C2NC(C(=O)O)Cc3c2[nH]c2ccccc32)cc(OC)c1OC (centres undefined)
Solution: active

Exercise: Which result was noted for this compound in the test: C/C=C/OC(=O)NC(c1ccccc1)[C@]1(C(C)=O)CCCC1=O (some centres undefined)
Solution: inactive

Exercise: Which result was noted for this compound in the test: "CCN1C(=O)[C@H]2[C@H]3[C@H](O)[C@H](O)C/C(=N/O[C@@H]4O[C@H](COC(C)=O)[C@@H](OC(C)=O)[C@H](OC(C)=O)[C@H]4OC(C)=O)[C@@H]3CC[C@@H]2C1=O"
Solution: active

Exercise: Which result was noted for this compound in the test: CC1CCC(C(=O)O)NC1c1cccc(N2CCOCC2)c1 (centres undefined)
Solution: inactive

Exercise: Which result was noted for this compound in the test: COC(=O)C1=C(C)N(Cc2ccccc2)[C@]23O[C@](C(=O)OC)(C(=O)N2C1c1ccccc1)C(C(=O)OC)C3C(=O)OC (some centres undefined)
Solution: inactive

Exercise: Which result was noted for this compound in the test: "CC(=O)OC[C@H]1O[C@@H](O/N=C(\C)CCN2CCCCc3nc(C)c(C)cc32)[C@H](OC(C)=O)[C@@H](OC(C)=O)[C@H]1OC(C)=O"
Solution: active

Exercise: Which result was noted for this compound in the test: CCCCC#CC1C=CC(Oc2cc(OC)c(OC)c(OC)c2)C(COC(=O)OCC)O1 (centres undefined)
Solution: inactive

Exercise: Which result was noted for this compound in the test: COC(=O)C1=C2N(Cc3ccccc3)C(C)=C(C(=O)OC)C(c3ccccc3)N2C(=O)[C@](O)(C(=O)OC)C1 (some centres undefined)
Solution: inactive

Exercise: Which result was noted for this compound in the test: CC#CCOCC/C=C1/c2ccccc2C(OC)C1C (centres undefined)
Solution: inactive

Exercise: Which result was noted for this compound in the test: CC(=O)OCC1OC(C#CCC2CCCCC2)C=CC1OC(C)=O (centres undefined)
Solution: inactive

Exercise: Which result was noted for this compound in the test: COc1ccc(OC2C(O)COC2/C=C/c2ccccc2)cc1 (centres undefined)
Solution: inactive

src = PubChem BioAssay (NCATS)
